# credit: ChEMBL document CHEMBL3400015

tested on: Staphylococcus epidermidis; assay: Antimicrobial activity against methicillin-resistant Staphylococcus epidermidis isolate 459/11 after 18 hrs by twofold serial broth dilution method; type: functional; settings: isolate 459/11, 18 h

compoundStructure	assayTarget	MIC (µg/mL)
CC[C@@H](C(=O)[C@@H](C)[C@@H](O)[C@H](C)[C@@H]1O[C@@H]([C@@H](CC)C(=O)N(CC)CC)CC[C@@H]1C)[C@H]1O[C@]2(C=C[C@@H](O)[C@]3(CC[C@@](C)([C@H]4CC[C@](O)(CC)[C@H](C)O4)O3)O2)[C@H](C)C[C@@H]1C	Staphylococcus epidermidis	4

* * *

tested on: Bacillus subtilis; test: Genotoxicity in rec-negative Bacillus subtilis M45 at 2 ug/9 mm disc after 24 hrs by disc diffusion method; format: toxicity, organism-based
diameter of the inhibition zone (DIZ): recorded values

molecule	diameter of the inhibition zone (DIZ) (mm)
CC[C@@H](C(=O)[C@@H](C)[C@@H](O)[C@H](C)[C@@H]1O[C@@H]([C@@H](CC)C(=O)N(CCOC)CCOC)CC[C@@H]1C)[C@H]1O[C@]2(C=C[C@@H](O)[C@]3(CC[C@@](C)([C@H]4CC[C@](O)(CC)[C@H](C)O4)O3)O2)[C@H](C)C[C@@H]1C	14
O=[N+]([O-])c1cc[n+]([O-])c2ccccc12 [4-NITROQUINOLINE-1-OXIDE]	24
CC[C@@H](C(=O)[C@@H](C)[C@@H](O)[C@H](C)[C@@H]1O[C@@H]([C@@H](CC)C(=O)N2CCNCC2)CC[C@@H]1C)[C@H]1O[C@]2(C=C[C@@H](O)[C@]3(CC[C@@](C)([C@H]4CC[C@](O)(CC)[C@H](C)O4)O3)O2)[C@H](C)C[C@@H]1C	14
CCCCN(CCCC)C(=O)[C@H](CC)[C@H]1CC[C@H](C)[C@H]([C@@H](C)[C@H](O)[C@H](C)C(=O)[C@H](CC)[C@H]2O[C@]3(C=C[C@@H](O)[C@]4(CC[C@@](C)([C@H]5CC[C@](O)(CC)[C@H](C)O5)O4)O3)[C@H](C)C[C@@H]2C)O1	30

* * *

test system: Staphylococcus aureus; test: Antimicrobial activity against Staphylococcus aureus ATCC 25923 after 18 hrs by twofold serial broth dilution method; assay type: functional; settings: ATCC 25923, 18 h
experimentalEndpoint: MIC (µg/mL)

compoundStructure	numericValue
CCCCN(CCCC)C(=O)[C@H](CC)[C@H]1CC[C@H](C)[C@H]([C@@H](C)[C@H](O)[C@H](C)C(=O)[C@H](CC)[C@H]2O[C@]3(C=C[C@@H](O)[C@]4(CC[C@@](C)([C@H]5CC[C@](O)(CC)[C@H](C)O5)O4)O3)[C@H](C)C[C@@H]2C)O1	8

* * *

system: Staphylococcus epidermidis; test: Antimicrobial activity against methicillin-resistant Staphylococcus epidermidis isolate 459/11 after 18 hrs by twofold serial broth dilution method; format: functional; settings: isolate 459/11, 18 h
experimentalEndpoint: MIC (µg/mL)

compoundStructure	experimentalEndpoint	numericValue
CC[C@@H](C(=O)[C@@H](C)[C@@H](O)[C@H](C)[C@@H]1O[C@@H]([C@@H](CC)C(=O)N(Cc2ccccc2)Cc2ccccc2)CC[C@@H]1C)[C@H]1O[C@]2(C=C[C@@H](O)[C@]3(CC[C@@](C)([C@H]4CC[C@](O)(CC)[C@H](C)O4)O3)O2)[C@H](C)C[C@@H]1C	MIC	16
CC[C@@H](C(=O)[C@@H](C)[C@@H](O)[C@H](C)[C@@H]1O[C@@H]([C@@H](CC)C(=O)N2CCNCC2)CC[C@@H]1C)[C@H]1O[C@]2(C=C[C@@H](O)[C@]3(CC[C@@](C)([C@H]4CC[C@](O)(CC)[C@H](C)O4)O3)O2)[C@H](C)C[C@@H]1C	MIC	64
CC[C@@H](C(=O)[C@@H](C)[C@@H](O)[C@H](C)[C@@H]1O[C@@H]([C@@H](CC)C(=O)N2CCOCC2)CC[C@@H]1C)[C@H]1O[C@]2(C=C[C@@H](O)[C@]3(CC[C@@](C)([C@H]4CC[C@](O)(CC)[C@H](C)O4)O3)O2)[C@H](C)C[C@@H]1C	MIC	128
CCCCCCCCN(CCCCCCCC)C(=O)[C@H](CC)[C@H]1CC[C@H](C)[C@H]([C@@H](C)[C@H](O)[C@H](C)C(=O)[C@H](CC)[C@H]2O[C@]3(C=C[C@@H](O)[C@]4(CC[C@@](C)([C@H]5CC[C@](O)(CC)[C@H](C)O5)O4)O3)[C@H](C)C[C@@H]2C)O1	MIC	256
CCCN(CCC)C(=O)[C@H](CC)[C@H]1CC[C@H](C)[C@H]([C@@H](C)[C@H](O)[C@H](C)C(=O)[C@H](CC)[C@H]2O[C@]3(C=C[C@@H](O)[C@]4(CC[C@@](C)([C@H]5CC[C@](O)(CC)[C@H](C)O5)O4)O3)[C@H](C)C[C@@H]2C)O1	MIC	4
CC[C@@H](C(=O)[C@@H](C)[C@@H](O)[C@H](C)[C@@H]1O[C@@H]([C@@H](CC)C(=O)N(CCOC)CCOC)CC[C@@H]1C)[C@H]1O[C@]2(C=C[C@@H](O)[C@]3(CC[C@@](C)([C@H]4CC[C@](O)(CC)[C@H](C)O4)O3)O2)[C@H](C)C[C@@H]1C	MIC	128
O=C(O)c1cn(C2CC2)c2cc(N3CCNCC3)c(F)cc2c1=O	MIC	32
CC[C@@H](C(=O)[C@@H](C)[C@@H](O)[C@H](C)[C@@H]1O[C@@H]([C@@H](CC)C(=O)N(CCO)CCO)CC[C@@H]1C)[C@H]1O[C@]2(C=C[C@@H](O)[C@]3(CC[C@@](C)([C@H]4CC[C@](O)(CC)[C@H](C)O4)O3)O2)[C@H](C)C[C@@H]1C	MIC	4
CCCCN(CCCC)C(=O)[C@H](CC)[C@H]1CC[C@H](C)[C@H]([C@@H](C)[C@H](O)[C@H](C)C(=O)[C@H](CC)[C@H]2O[C@]3(C=C[C@@H](O)[C@]4(CC[C@@](C)([C@H]5CC[C@](O)(CC)[C@H](C)O5)O4)O3)[C@H](C)C[C@@H]2C)O1	MIC	4
